Origin of measurements: patent US20080292736A1

MEASUREMENT_DESCRIPTION: Enhancement of bioavailability of drugs given to rats with bioenhancers (plasma drug level by HPLC)
STUDY_CONDITIONS: drug with Carum carvi bioenhancer and Zingiber officinale 35 mg/kg, drug dose as in row
Could you please report measured % Enhancement in bioavailability, Carum carvi + Zingiber officinale for the items listed next?

For orientation, consider the following solved cases.
O=C(CCCN1CCC(O)(c2ccc(Cl)cc2)CC1)c1ccc(F)cc1 : 85%
COc1cccc2c1C(=O)c1c(O)c3c(c(O)c1C2=O)C[C@@](O)(C(=O)CO)C[C@@H]3O[C@H]1C[C@H](N)[C@H](O)[C@H](C)O1 : 69%
CS(=O)(=O)c1ccc(C2=C(c3ccccc3)C(=O)OC2)cc1 : 80%
CO[C@H]1/C=C/O[C@@]2(C)Oc3c(C)c(O)c4c(O)c(c(/C=N/N5CCN(C)CC5)c(O)c4c3C2=O)NC(=O)/C(C)=C\C=C\[C@H](C)[C@H](O)[C@@H](C)[C@@H](O)[C@@H](C)[C@H](OC(C)=O)[C@@H]1C : 140%

I have 3 compounds here; please give me % Enhancement in bioavailability, Carum carvi + Zingiber officinale for each one.
1. Cc1nnc2n1-c1ccc(Cl)cc1C(c1ccccc1)=NC2
2. Nc1ccc(S(=O)(=O)c2ccc(N)cc2)cc1
3. CCc1cc(C(N)=S)ccn1 [Ethionamide]

Result:
80%
68%
70%

---

STUDY_CONDITIONS: rat, in vivo
Consider the following compounds; for each one, report its % Enhancement in bioavailability, Carum carvi + Piperine.
One number for each entry, in %.

Study these solved cases before continuing.
COc1ccc2[nH]c([S+]([O-])Cc3ncc(C)c(OC)c3C)nc2c1 (stereo not shown) : 70
NCC[C@H](O)C(=O)N[C@@H]1C[C@H](N)[C@@H](O[C@H]2O[C@H](CN)[C@@H](O)[C@H](O)[C@H]2O)[C@H](O)[C@H]1O[C@H]1O[C@H](CO)[C@@H](O)[C@H](N)[C@H]1O : 100
C=CC[C@@H]1/C=C(\C)C[C@H](C)C[C@H](OC)[C@H]2O[C@@](O)(C(=O)C(=O)N3CCCC[C@H]3C(=O)O[C@H](/C(C)=C/[C@@H]3CC[C@@H](O)[C@H](OC)C3)[C@H](C)[C@@H](O)CC1=O)[C@H](C)C[C@@H]2OC : 95
NC(=O)c1cnccn1 [Pyrazinamide] : 50
CN1C(C(=O)Nc2ccccn2)=C(O)c2ccccc2S1(=O)=O : 98

Could you report % Enhancement in bioavailability, Carum carvi + Piperine for every entry in the following list?
1. CC1=C(C(=O)O)N2C(=O)[C@@H](NC(=O)[C@H](N)c3ccc(O)cc3)[C@H]2SC1
2. CC[C@H]1OC(=O)[C@H](C)[C@@H](O[C@H]2C[C@@](C)(OC)[C@@H](O)[C@H](C)O2)[C@H](C)[C@@H](O[C@@H]2O[C@H](C)C[C@H](N(C)C)[C@H]2O)[C@](C)(O)C[C@@H](C)/C(=N\OCOCCOC)[C@H](C)[C@@H](O)[C@]1(C)O
3. CCn1cc(C(=O)O)c(=O)c2cc(F)c(N3CCNCC3)cc21
4. O=C(O)Cc1ccccc1Nc1c(Cl)cccc1Cl

Result:
1. 95
2. 95
3. 65
4. 100

Each compound below has a reported value. Please supply its % Enhancement in bioavailability, Carum carvi + Piperine.
1. CCOC(=O)C1=C(COCCN)NC(C)=C(C(=O)OC)C1c1ccccc1Cl (stereo not shown)
2. CC[C@H]1OC(=O)[C@H](C)[C@@H](O[C@H]2C[C@@](C)(OC)[C@@H](O)[C@H](C)O2)[C@H](C)[C@@H](O[C@@H]2O[C@H](C)C[C@H](N(C)C)[C@H]2O)[C@](C)(O)C[C@@H](C)C(=O)[C@H](C)[C@@H](O)[C@]1(C)O
3. CNC(=C[N+](=O)[O-])NCCSCc1ccc(CN(C)C)o1

Result:
1: 50; 2: 100; 3: 70

// each listed compound needs a value for % Enhancement in bioavailability, Carum carvi + Piperine
1. Cc1onc(-c2ccccc2Cl)c1C(=O)N[C@@H]1C(=O)N2[C@@H]1SC(C)(C)[C@@H]2C(=O)O
2. N[C@@H]1CON=C1O

Result:
95
80

---

STUDY_CONDITIONS: rat, in vivo
OBSERVED_PROPERTY: % Enhancement in bioavailability, BE from Carum carvi

Worked examples follow.
CNC(=C[N+](=O)[O-])NCCSCc1ccc(CN(C)C)o1 [Ranitidine] : 67%
CC[C@H]1OC(=O)[C@H](C)[C@@H](O[C@H]2C[C@@](C)(OC)[C@@H](O)[C@H](C)O2)[C@H](C)[C@@H](O[C@@H]2O[C@H](C)C[C@H](N(C)C)[C@H]2O)[C@](C)(O)C[C@@H](C)CN(C)[C@H](C)[C@@H](O)[C@]1(C)O [Azithromycin] : 55%
CN1C(C(=O)Nc2ccccn2)=C(O)c2ccccc2S1(=O)=O [Piroxicam] : Nil
COc1ccc2[nH]c([S+]([O-])Cc3ncc(C)c(OC)c3C)nc2c1 (stereo not shown) [Omeprazole] : 76%
NC(=O)c1cnccn1 [Pyrazinamide] : 45%
Nc1nc2c(ncn2COCCO)c(=O)[nH]1 [Acyclovir] : 78%
N[C@@H]1CON=C1O [Cycloserine] : 70%
C=CC[C@@H]1/C=C(\C)C[C@H](C)C[C@H](OC)[C@H]2O[C@@](O)(C(=O)C(=O)N3CCCC[C@H]3C(=O)O[C@H](/C(C)=C/[C@@H]3CC[C@@H](O)[C@H](OC)C3)[C@H](C)[C@@H](O)CC1=O)[C@H](C)C[C@@H]2OC [Tacrolimus] : 90%
CC[C@@H](CO)NCCN[C@@H](CC)CO [Ethambutol] : Nil
CCn1cc(C(=O)O)c(=O)c2cc(F)c(N3CCNCC3)cc21 [Norfloxacin] : 55%

# batch: return % Enhancement in bioavailability, BE from Carum carvi for each of the 3 compounds below
1. O=C(O)Cc1ccccc1Nc1c(Cl)cccc1Cl [Diclofenac]
2. NNC(=O)c1ccncc1 [Isoniazid]
3. CC[C@H]1OC(=O)[C@H](C)[C@@H](O[C@H]2C[C@@](C)(OC)[C@@H](O)[C@H](C)O2)[C@H](C)[C@@H](O[C@@H]2O[C@H](C)C[C@H](N(C)C)[C@H]2O)[C@](C)(O)C[C@@H](C)C(=O)[C@H](C)[C@@H](O)[C@]1(C)O [Erythromycin]

Result:
Nil
Nil
70%

---

MEASUREMENT_DESCRIPTION: Enhancement of bioavailability of drugs given to rats with bioenhancers (plasma drug level by HPLC)
STUDY_CONDITIONS: nutraceutical with Carum carvi Fraction No. 1 and Zingiber officinale
For each entry below, report its % Enhancement in bioavailability, Carum carvi + Zingiber officinale, Frac 1. (Cc) value.
Answers are plain numbers, in %.

CC1=C(/C=C/C(C)=C/C=C/C(C)=C/C=C/C=C(C)/C=C/C=C(C)/C=C/C2=C(C)CCCC2(C)C)C(C)(C)CCC1 : 72
Cc1ncc(C[n+]2csc(CCO)c2C)c(N)n1 : 55

Problem: Fill in: % Enhancement in bioavailability, Carum carvi + Zingiber officinale, Frac 1. (Cc) of `CSCC[C@H](N)C(=O)O` is ___
Result: 37

---

Give measured % Enhancement in bioavailability, BE from Zingiber officinale for each item. Keep answers brief.
MEASUREMENT_DESCRIPTION: Enhancement of bioavailability of drugs given to rats with bioenhancers (plasma drug level by HPLC)
STUDY_CONDITIONS: drug with Zingiber officinale 50% alcoholic extract of fresh ginger 35 mg/kg, drug dose as in row
Answers are plain numbers, in %.

These solved cases illustrate the format of a correct answer.
CN(Cc1cnc2nc(N)nc(N)c2n1)c1ccc(C(=O)N[C@@H](CCC(=O)O)C(=O)O)cc1 [Methotrexate] : 87
Cn1c(=O)c2[nH]cnc2n(C)c1=O [Theophylline] : 76

Problem: % Enhancement in bioavailability, BE from Zingiber officinale for CS(=O)(=O)Nc1ccc([N+](=O)[O-])cc1Oc1ccccc1 [Nimesulide] ?
Result: 144

---

STUDY_CONDITIONS: rat, in vivo
OBSERVED_PROPERTY: % Enhancement in bioavailability, Carum carvi + Zingiber officinale

Recorded results for 5 molecules are shown here.
CNC(=C[N+](=O)[O-])NCCSCc1ccc(CN(C)C)o1 [Ranitidine] : 150%
CC[C@H]1OC(=O)[C@H](C)[C@@H](O[C@H]2C[C@@](C)(OC)[C@@H](O)[C@H](C)O2)[C@H](C)[C@@H](O[C@@H]2O[C@H](C)C[C@H](N(C)C)[C@H]2O)[C@](C)(O)C[C@@H](C)/C(=N\OCOCCOC)[C@H](C)[C@@H](O)[C@]1(C)O [Roxythromycin] : 98%
CN1C(C(=O)Nc2ccccn2)=C(O)c2ccccc2S1(=O)=O [Piroxicam] : 76%
O=C(O)Cc1ccccc1Nc1c(Cl)cccc1Cl [Diclofenac] : 95%
C=CC1=C(C(=O)O)N2C(=O)[C@@H](NC(=O)/C(=N\OCC(=O)O)c3csc(N)n3)[C@H]2SC1 [Cefixime] : 82%

Look up % Enhancement in bioavailability, Carum carvi + Zingiber officinale for the entries below, preserving their order.
1. Cc1onc(-c2ccccc2Cl)c1C(=O)N[C@@H]1C(=O)N2[C@@H]1SC(C)(C)[C@@H]2C(=O)O [Cloxacillin]
2. CC[C@@H](CO)NCCN[C@@H](CC)CO [Ethambutol]
3. NC(=O)c1cnccn1 [Pyrazinamide]
4. N[C@@H]1CON=C1O [Cycloserine]
5. Nc1nc2c(ncn2COCCO)c(=O)[nH]1 [Acyclovir]
6. NCC[C@H](O)C(=O)N[C@@H]1C[C@H](N)[C@@H](O[C@H]2O[C@H](CN)[C@@H](O)[C@H](O)[C@H]2O)[C@H](O)[C@H]1O[C@H]1O[C@H](CO)[C@@H](O)[C@H](N)[C@H]1O [Amikacin]

Result:
1: 110%; 2: nil; 3: 55%; 4: 75%; 5: 90%; 6: 92%

List reported % Enhancement in bioavailability, Carum carvi + Zingiber officinale for each of these molecules:
1. CC1=C(C(=O)O)N2C(=O)[C@@H](NC(=O)[C@H](N)c3ccc(O)cc3)[C@H]2SC1 [Cefadroxil]
2. CCn1cc(C(=O)O)c(=O)c2cc(F)c(N3CCNCC3)cc21 [Norfloxacin]
3. COc1ccc2[nH]c([S+]([O-])Cc3ncc(C)c(OC)c3C)nc2c1 (centres unmarked) [Omeprazole]

Result:
1: 85%; 2: 60%; 3: 75%
